Hey, just so you know, these numbers are from PubChem BioAssay AID1963836.

viability, T/C reference
System: 857933-349-R-J2-PDC complex spheroid viability;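 further: spheroids exposed to compounds for seven days before readout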
Experiment: Anticancer human tumor 857933-349-R-J2-PDC patient-derived colon adenocarcinoma cell line growth inhibition [POLQ]
Conditions: second compound 0.1 µM; first compound 0.1 µM; active compounds read low
Description: Multicellular complex tumor spheroid response to Polymerase (POL) inhibitors (novobiocin, ART-558, RP6685) in combination with a variety of drugs and investigational agents in selected tumor cell lines The POL inhibitors (novobiocin, ART-558, and RP6685) were evaluated both individually and in combination with standard of care and investigational anticancer small molecules within a complex spheroid model of solid tumors. . […]
assay metric: viability, T/C (%)

[
  {
    "compound": "CNCc1ccc(-c2[nH]c3cc(F)cc4c3c2CCNC4=O)cc1 + Nc1ccc(C#CCN(C(=O)Cc2ncc(C(F)(F)F)cc2C(F)(F)F)c2ccc(F)cc2)nn1",
    "numeric result": 78.7
  },
  {
    "compound": "CCCS(=O)(=O)Nc1ccc(F)c(C(=O)c2c[nH]c3ncc(-c4ccc(Cl)cc4)cc23)c1F + Nc1ccc(C#CCN(C(=O)Cc2ncc(C(F)(F)F)cc2C(F)(F)F)c2ccc(F)cc2)nn1",
    "numeric result": 112
  },
  {
    "compound": "COc1cc2cc(C(=O)CCC(=O)O)sc2cc1OC + Nc1ccc(C#CCN(C(=O)Cc2ncc(C(F)(F)F)cc2C(F)(F)F)c2ccc(F)cc2)nn1",
    "numeric result": 106
  },
  {
    "compound": "CCc1cc2c(N3CCc4c(cc(Cn5ccnc5)cc4-c4cn(C)nc4C(F)(F)F)C3=O)cc(C)nc2c(OC)n1 + Nc1ccc(C#CCN(C(=O)Cc2ncc(C(F)(F)F)cc2C(F)(F)F)c2ccc(F)cc2)nn1",
    "numeric result": 101
  },
  {
    "compound": "CC1COCCN1c1cc(C2(O)CC3CCC(C2)O3)c2cnn(-c3ccn[nH]3)c2n1 (stereo not given) + Cc1cccc(N(C)C(=O)C2C(O)CCN2c2nc(C)cc(C(F)(F)F)c2C#N)c1",
    "numeric result": 62.9
  },
  {
    "compound": "CC1COCCN1c1cc(C2(S(C)(=N)=O)CC2)nc(-c2ccnc3[nH]ccc23)n1 (stereo not given) + Nc1ccc(C#CCN(C(=O)Cc2ncc(C(F)(F)F)cc2C(F)(F)F)c2ccc(F)cc2)nn1",
    "numeric result": 104
  },
  {
    "compound": "O=C(Nc1ccc(O)c(NS(=O)(=O)c2ccc(F)cc2)c1)c1ccc(-c2ccccc2)cc1 + Nc1ccc(C#CCN(C(=O)Cc2ncc(C(F)(F)F)cc2C(F)(F)F)c2ccc(F)cc2)nn1",
    "numeric result": 96.6
  },
  {
    "compound": "CCc1cc2c(N3CCc4c(cc(Cn5ccnc5)cc4-c4cn(C)nc4C(F)(F)F)C3=O)ccnc2c(OC)n1 + Nc1ccc(C#CCN(C(=O)Cc2ncc(C(F)(F)F)cc2C(F)(F)F)c2ccc(F)cc2)nn1",
    "numeric result": 101
  },
  {
    "compound": "Nc1ccn(C2OC(CO)C(O)C2(F)F)c(=O)n1 (stereo not given) + COC1C(OC(N)=O)C(O)C(Oc2ccc3c(O)c(NC(=O)c4ccc(O)c(CC=C(C)C)c4)c(=O)oc3c2C)OC1(C)C",
    "numeric result": 63.3
  },
  {
    "compound": "CCc1cc2c(N3CCc4c(cc(Cn5ccnc5)cc4-c4cn(C)nc4C(F)(F)F)C3=O)cc(C)nc2c(OC)n1 + Cc1cccc(N(C)C(=O)C2C(O)CCN2c2nc(C)cc(C(F)(F)F)c2C#N)c1",
    "numeric result": 103
  },
  {
    "compound": "CCc1cc2c(N3CCc4c(cc(Cn5ccnc5)cc4-c4cn(C)nc4C(F)(F)F)C3=O)cc(C)nc2c(OC)n1 + COC1C(OC(N)=O)C(O)C(Oc2ccc3c(O)c(NC(=O)c4ccc(O)c(CC=C(C)C)c4)c(=O)oc3c2C)OC1(C)C",
    "numeric result": 77.6
  },
  {
    "compound": "CC1COCCN1c1cc(-c2ccnn2C)c2ccnc(-c3ccn[nH]3)c2n1 (stereo not given) + COC1C(OC(N)=O)C(O)C(Oc2ccc3c(O)c(NC(=O)c4ccc(O)c(CC=C(C)C)c4)c(=O)oc3c2C)OC1(C)C",
    "numeric result": 77.6
  },
  {
    "compound": "CC1COCCN1c1cc(-c2ccnn2C)c2ccnc(-c3ccn[nH]3)c2n1 (stereo not given) + Cc1cccc(N(C)C(=O)C2C(O)CCN2c2nc(C)cc(C(F)(F)F)c2C#N)c1",
    "numeric result": 73.2
  },
  {
    "compound": "CCCS(=O)(=O)Nc1ccc(F)c(C(=O)c2c[nH]c3ncc(-c4ccc(Cl)cc4)cc23)c1F + COC1C(OC(N)=O)C(O)C(Oc2ccc3c(O)c(NC(=O)c4ccc(O)c(CC=C(C)C)c4)c(=O)oc3c2C)OC1(C)C",
    "numeric result": 112
  },
  {
    "compound": "CC1COCCN1c1cc(C2(O)CC3CCC(C2)O3)c2cnn(-c3ccn[nH]3)c2n1 (stereo not given) + COC1C(OC(N)=O)C(O)C(Oc2ccc3c(O)c(NC(=O)c4ccc(O)c(CC=C(C)C)c4)c(=O)oc3c2C)OC1(C)C",
    "numeric result": 57.7
  },
  {
    "compound": "CC1COCCN1c1cc(C2(S(C)(=N)=O)CC2)nc(-c2ccnc3[nH]ccc23)n1 (stereo not given) + Cc1cccc(N(C)C(=O)C2C(O)CCN2c2nc(C)cc(C(F)(F)F)c2C#N)c1",
    "numeric result": 112
  },
  {
    "compound": "CC(C)n1c(=O)n(C)c2cnc3cc(F)c(-c4ccc(OCCCN5CCCCC5)nc4)cc3c21 + COC1C(OC(N)=O)C(O)C(Oc2ccc3c(O)c(NC(=O)c4ccc(O)c(CC=C(C)C)c4)c(=O)oc3c2C)OC1(C)C",
    "numeric result": 118
  },
  {
    "compound": "O=C(c1cc(Cc2n[nH]c(=O)c3ccccc23)ccc1F)N1CCN(C(=O)C2CC2)CC1 + Nc1ccc(C#CCN(C(=O)Cc2ncc(C(F)(F)F)cc2C(F)(F)F)c2ccc(F)cc2)nn1",
    "numeric result": 104
  },
  {
    "compound": "CCc1cc2c(N3CCc4c(cc(Cn5ccnc5)cc4-c4cn(C)nc4C(F)(F)F)C3=O)ccnc2c(OC)n1 + COC1C(OC(N)=O)C(O)C(Oc2ccc3c(O)c(NC(=O)c4ccc(O)c(CC=C(C)C)c4)c(=O)oc3c2C)OC1(C)C",
    "numeric result": 93.1
  },
  {
    "compound": "C#Cc1c(F)ccc2cc(O)cc(-c3ncc4c(N5CC6CCC(C5)N6)nc(OCC56CCCN5CC(F)C6)nc4c3F)c12 (stereo not given) + Nc1ccc(C#CCN(C(=O)Cc2ncc(C(F)(F)F)cc2C(F)(F)F)c2ccc(F)cc2)nn1",
    "numeric result": 101
  }
]
